# Tested on: LXFL 529
# procedure_details: NCI tumour cell line growth inhibition, 48 h
Activity calls are given as the source filed them. Rule as the data show it: active = GI50 up to about 1.1 µM and inactive = higher.
Classes used: T for active, F for inactive

| compound | target_system | discrete_label |
| --- | --- | --- |
| CC1=C(N2CC2)C(=O)c2nc3n(c2C1=O)CCC3O (configuration not stated) | LXFL 529 | T |
| C=CC1=C(C)c2cc3[nH]c(cc4nc(cc5[nH]c(cc1n2)c(C)c5CCC(=O)N(CC)CC)C(CCC(=O)N(CC)CC)=C4C)c(C)c3C=C | LXFL 529 | F |
| CCc1cccc(C)c1NC(=O)CC(=O)NNC(N)=S | LXFL 529 | F |
| COc1ccc(NC(=O)CSc2nnc(-c3ccc(/N=C\c4ccc(Cl)cc4)cc3)o2)cc1 | LXFL 529 | F |
| O=C1CCC(c2ccccc2)C(O)(C(=O)O)C1 (configuration not stated) | LXFL 529 | F |
| CN(C)c1ccc(/C=C2\CNC/C(=C\c3ccc(N(C)C)cc3)C2=O)cc1 | LXFL 529 | F |
| COc1ccc([Se]c2ccc(OC)cc2OC)c(OC)c1 | LXFL 529 | F |
| CCC1(N=[N+]=[N-])C(=O)c2ccccc2N(C)C1=O (configuration not stated) | LXFL 529 | F |
| CC1=C(/C=C/C2=CC(=C\C(=O)O)/CC(C3=C(C)CCCC3(C)C)C2)C(C)(C)CCC1 (configuration not stated) | LXFL 529 | F |
| N#CC1=C(O)NC(O)=C(C#N)C1c1ccc(C2C(C#N)=C(O)NC(O)=C2C#N)cc1 | LXFL 529 | F |
| Oc1ccncc1-c1cnccc1O | LXFL 529 | F |
| Cc1cccc(C(C)C)c1NC(=O)CC1Sc2ccccc2NC1=O (configuration not stated) | LXFL 529 | F |
| COC(=O)C(C(=O)C(=O)Nc1c(C)cccc1C)c1cnc2ccccc2n1 (configuration not stated) | LXFL 529 | F |
| O=C1CC(c2ccccc2)=Nc2ccccc2N1 | LXFL 529 | F |
| CN[C@@H](C)[C@H](NC)c1ccccc1 | LXFL 529 | F |
| N#CCCN(CCC#N)c1ccc(C(=O)NN)cc1 | LXFL 529 | F |
| Cc1ccc(-c2cc(-c3ccco3)c(C#N)c(=O)n2C2OC(OC(=O)c3ccccc3)C(OC(=O)c3ccccc3)C2OC(=O)c2ccccc2)cc1 (configuration not stated) | LXFL 529 | F |
| O=C(CCC1C(=O)NC(=S)NC1=O)c1ccc2ccccc2c1 | LXFL 529 | F |
| O=C1NC2(CCCC2)C2CCCCC12O (configuration not stated) | LXFL 529 | F |
| CC(=O)NC1C(=O)CC(c2ccccc2)N(C)C1c1ccccc1 (configuration not stated) | LXFL 529 | F |
| CCCCCCCCCCCCCCCCCC(=O)Nc1ccn(C2OC(CO)C(O)C2O)c(=O)n1 (configuration not stated) | LXFL 529 | F |
| COc1cc(C2C(Cl)C(=O)N2n2cnc3ccccc3c2=O)ccc1O (configuration not stated) | LXFL 529 | F |

====

Overview of reported GI50 across a group of molecules:
# System: SK-MEL-5
# procedure_details: NCI tumour cell line growth inhibition, 48 h
Active and inactive are the calls of the source. Cut-off read from the data, not from the text of the source: active = GI50 up to about 1.1 µM and inactive = higher.

| molecule | GI50 |
| --- | --- |
| C=CCC(C(=O)OC)C1(C(=O)OC)c2[nH]c3ccccc3c2CCN1Cc1ccccc1 (stereo unspecified) | 85.5 µM (inactive) |
| Cc1cc(-c2nc3cccc(O)c3s2)ccc1N | 19.3 µM (inactive) |
| N#CC(=C1C=CC(=NO)C=C1)c1ccc(Cl)cc1 | 7.5 µM (inactive) |
| COc1ccc(NC(=O)C(=O)Cc2nc3ccc([N+](=O)[O-])cc3nc2O)c(OC)c1 | > 100 µM (inactive) |
| CCOC(=O)C1CCCC1S(=O)(=O)c1ccc(C)cc1 (stereo unspecified) | > 100 µM (inactive) |
| CC(O[Si](c1ccccc1)(c1ccccc1)C(C)(C)C)[C@H](NC(=O)OC(C)(C)C)C(=O)O[Si](c1ccccc1)(c1ccccc1)C(C)(C)C (stereo partly specified) | 15.7 µM (inactive) |
| COC(=O)C1C2CC3C(OC(=O)C31)C2I (stereo unspecified) | > 100 µM (inactive) |
| O=c1c2ccccc2sc2nc(CCl)nn12 | > 100 µM (inactive) |
| O=[N+]([O-])c1ccc(/C=C/c2csnn2)cc1 | > 100 µM (inactive) |
| CC/C=N\N1C(N)=C(C#N)C(C#N)(C#N)C1CC (stereo unspecified) | 53.1 µM (inactive) |
| COc1cc(C2c3cc4c(cc3OC(NN)C2C)OCO4)cc(OC)c1O (stereo unspecified) | 4.13 µM (inactive) |

====

# System: TK-10
# procedure_details: NCI tumour cell line growth inhibition, 48 h
Active and inactive are the calls of the source. Rule as the data show it: active = GI50 up to about 1.1 µM and inactive = higher.

| compound | GI50 |
| --- | --- |
| CN1C(=O)C(CC(=O)O)NC1=S (stereo not given) | > 100 µM (inactive) |
| COc1cc(Br)cc2cc(-c3cn4ccsc4n3)c(=O)oc12 | 64.7 µM (inactive) |
| COc1cc(C2c3cc4c(cc3OC(NN)C2C)OCO4)cc(OC)c1O (stereo not given) | 26.2 µM (inactive) |
| CCCC[C@@H](C)/C=C1\CN2CCC[C@H]2[C@@](C)(O)[C@@H]1O | > 100 µM (inactive) |
| O=C(CC(C(=O)c1cccs1)c1ccsc1)c1ccc(Cl)cc1 (stereo not given) | > 100 µM (inactive) |

====

# Test system: SW-620
# procedure_details: NCI tumour cell line growth inhibition, 48 h
Active and inactive are the calls of the source. No stated cut-off is given here; in the data, active = GI50 up to about 1.1 µM and inactive = higher.
Overview of reported GI50 across a group of compounds:

| compound | GI50 |
| --- | --- |
| CCCCCCCCCCCCCCCCCC(=O)Nc1ccn(C2OC(CO)C(O)C2O)c(=O)n1 (stereo unspecified) | 57.1 µM (inactive) |
| COc1cc(C2c3cc4c(cc3OC(NN)C2C)OCO4)cc(OC)c1O (stereo unspecified) | 4.73 µM (inactive) |
| C=C(COC(C)=O)CC(OC(C)=O)c1ccccc1 (stereo unspecified) | > 100 µM (inactive) |
| COC(=O)/C(=N\NC(=O)C[N+](C)(C)C)C(C(=O)OC)C(=O)C(=O)Nc1ccccc1C(N)=O (stereo unspecified) | > 100 µM (inactive) |
| COc1ccc2cc(C(=O)c3ccccc3C(=O)O)ccc2c1 | > 100 µM (inactive) |
| COc1ccc(-c2ccc(C(=O)C=P(c3ccccc3)(c3ccccc3)c3ccccc3)cc2)cc1 | 14.6 µM (inactive) |

====

# System: XF498
# procedure_details: NCI tumour cell line growth inhibition, 48 h
The source made the active and inactive calls. No stated cut-off is given here; in the data, active = GI50 up to about 1.1 µM and inactive = higher.
Classes used: true (1) (active), false (0) (inactive)

| compound | target_system | discrete_label |
| --- | --- | --- |
| O=C1CC(CC(=O)C2CCCCC2=O)C(=O)N1 (centres undefined) | XF498 | false (0) |
| Cc1cccc(C(C)C)c1NC(=O)CC1Sc2ccccc2NC1=O (centres undefined) | XF498 | false (0) |
| CN(C)c1ccc(/C=C2\CNC/C(=C\c3ccc(N(C)C)cc3)C2=O)cc1 | XF498 | false (0) |
| CC1=C(/C=C/C2=CC(=C\C(=O)O)/CC(C3=C(C)CCCC3(C)C)C2)C(C)(C)CCC1 (centres undefined) | XF498 | false (0) |
| Cc1ccc(S(=O)(=O)c2ccc(C)cc2[N+](=O)[O-])c([N+](=O)[O-])c1 | XF498 | false (0) |
| N#CC1=C(O)NC(O)=C(C#N)C1c1ccc(C2C(C#N)=C(O)NC(O)=C2C#N)cc1 | XF498 | false (0) |
| COc1ccc(/C=c2/sc3n(c2=O)NC2(CCC(C)CC2)NN=3)cc1 (centres undefined) | XF498 | false (0) |
| CC(C)(C)N1CC1CNC(=O)C(=O)NCC1CN1C(C)(C)C (centres undefined) | XF498 | true (1) |
| CCN(CC)CCSc1c2ccccc2nc2cc(NCC(=O)Nc3ccccc3-c3ccccc3NC(=O)CNc3ccc4c(SCCN(CC)CC)c5ccccc5nc4c3)ccc12 | XF498 | false (0) |

====

# Test system: SK-MEL-28
# procedure_details: NCI tumour cell line growth inhibition, 48 h
Calls of active or inactive are those of the source. No stated cut-off is given here; in the data, active = GI50 up to about 1.1 µM and inactive = higher.
Classes used: active, inactive

| compound | discrete_label |
| --- | --- |
| NS(=O)(=O)c1nnc(NS(=O)(=O)c2ccc(F)cc2)s1 | inactive |
| CC(C)C[C@@H](NC(=O)[C@@H](Cc1cccc2ccccc12)NC(=O)N1CCOCC1)B(O)O | inactive |
| Cn1c2ccccc2c(=NNc2ccccc2C(=O)O)c2ccccc21 | inactive |
| O=C(O)c1ccccc1NC(=O)C1CCCCC1 | inactive |
| Cc1ccc(S(=O)(=O)n2c3c(c4ccccc42)CCN2C(=O)C(S(=O)(=O)c4ccccc4)=CCC32)cc1 (stereo not given) | active |

Reference for the values: ChEMBL document CHEMBL1201862
